# EC50 per record follows
Assay Target: human TGR5 (Homo sapiens, UniProt Q8TDU6)
Construct: expressed in transfected cells; host or cells: HEK293
Sequence (Q8TDU6 whole entry): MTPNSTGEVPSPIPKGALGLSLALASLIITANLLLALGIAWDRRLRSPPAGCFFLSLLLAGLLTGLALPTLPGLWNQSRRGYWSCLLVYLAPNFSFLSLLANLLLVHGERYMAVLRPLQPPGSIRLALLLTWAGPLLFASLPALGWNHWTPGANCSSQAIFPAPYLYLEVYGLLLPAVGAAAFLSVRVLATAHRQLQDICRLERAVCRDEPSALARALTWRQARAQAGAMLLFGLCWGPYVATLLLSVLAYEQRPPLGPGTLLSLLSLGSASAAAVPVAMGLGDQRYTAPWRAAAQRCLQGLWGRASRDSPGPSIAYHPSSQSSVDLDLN
Measurement Notes: Cell-based TGR5 assay (cAMP generation, HTRF)
Reported Conditions: HEK293 cells stably transfected with human TGR5; cAMP by HTRF; 30 minutes at 37° C.; read-out: pEC50 Human TGR5 (converted)

The examples below pair each entry with its known result.
{"columns": ["Molecule", "Outcome Measure", "Value"],
 "data": [
  ["CN(CCCCN(C)S(=O)(=O)c1ccc(Cl)c(COC2(c3cnccc3-c3ccccc3OC3CC3)CC2)c1)C(=O)[C@@H](O)[C@@H](O)[C@H](O)[C@@H](O)CO", "EC50", "< 100 nM"],
  ["Cc1cc(CNC2(c3cnccc3-c3ccccc3OC3CC3)CC2)c(Cl)cc1CCCCNC(=O)NC[C@H](O)[C@@H](O)[C@H](O)[C@H](O)CO (stereo in doubt)", "EC50", "126 to 1000 nM"],
  ["CS(=O)(=O)NCCN(CCCSc1ccc(Cl)c(CNC2(c3cnccc3-c3ccccc3OC3CC3)CC2)c1)C(=O)[C@@H](O)[C@@H](O)[C@H](O)[C@@H](O)CO", "EC50", "< 100 nM"]
]}

stdin: Tell me its EC50 on human TGR5 (Homo sapiens, UniProt Q8TDU6): CN(C)CCN(C[C@H](O)[C@@H](O)[C@H](O)[C@H](O)CO)C(=O)CCCCc1cc(Cl)c(COC2(c3cnccc3-c3ccccc3OC3CC3)CC2)cc1Cl
stdout: 126 to 1000 nM

stdin: Tell me its EC50 on human TGR5 (Homo sapiens, UniProt Q8TDU6): CS(=O)(=O)CCN(CCCCNS(=O)(=O)c1ccc(Cl)c(COC2(c3cnccc3-c3ccccc3OC3CC3)CC2)c1)C(=O)[C@@H](O)[C@@H](O)[C@H](O)[C@@H](O)CO
stdout: < 100 nM

Ref: patent US12084472B2
